assay: qHTS of pediatric cancer cell lines to identify multiple opportunities for drug repurposing: Primary screen for DAOY cells (AID 1347090); conditions: DAOY medulloblastoma viability, CellTiter-Glo luminescence, 48 h; series mostly up to 46 µM; note: nearly all actives have a fitted effect of over 55% in size; note: potency is the fitted concentration of half-maximal effect
Inconclusive results are not listed. Active and inactive are the calls of the source. Calls come from the whole dose curve; as a rule, active = well fitted cell-killing curve with a large enough effect; inconclusive = small, poorly fitted or top-dose-only effect; inactive = flat fitted curve, though single readings scatter.
Property name: Potency

Check out these entries, answers already filled in.
* NC1=N[C@H]2[C@H](CS[C@H]2CCCCC(=O)O)N1 | inactive
* CCCCCCCCCCCCc1ccc(S(=O)(=O)Nc2nncs2)cc1 | inactive
* C=CC(=O)Nc1cccc(Nc2nc(NC3CCC(N(C)C)CC3)nc3c2ncn3C(C)C)c1 (centres undefined) | 0.003 µM (active)
* CN(C)CC[C@H](c1ccc(Cl)cc1)c1ccccn1 | 23.5 µM (active)
* CCCc1nc(C(C)(C)O)c(C(=O)O)n1Cc1ccc(-c2ccccc2-c2nn[nH]n2)cc1 | inactive

Input line: Need Potency, item C[C@H]1C[C@H]2[C@@H]3CCC4=CC(=O)C=C[C@]4(C)[C@@H]3C(=O)C[C@]2(C)[C@@]1(O)C(=O)CO
Output line: inactive

Input line: Need Potency, item CCOC(=O)C=C[C@H](C[C@@H]1CCNC1=O)NC(=O)[C@@H](CC(=O)[C@@H](NC(=O)c1cc(C)on1)C(C)C)Cc1ccc(F)cc1
Output line: inactive

Input line: Need Potency, item CCN(C(=O)c1c(O)c2c(Cl)cccc2n(C)c1=O)c1ccccc1
Output line: inactive

Input line: Need Potency, item N#Cc1cc(NC(=O)Nc2nnc(-c3ccncc3)s2)ccc1-c1cn[nH]c1
Output line: inactive
